Form field: IC50 (one value per entry).
target: FAAH (Homo sapiens (Human), UniProt O00519); experiment: In vitro competitive activity-based protein profiling, human proteomes (prefrontal cortex or PC3 cell membrane fractions); assay type: biochemical; conditions: human proteome
Sequence (O00519 whole entry): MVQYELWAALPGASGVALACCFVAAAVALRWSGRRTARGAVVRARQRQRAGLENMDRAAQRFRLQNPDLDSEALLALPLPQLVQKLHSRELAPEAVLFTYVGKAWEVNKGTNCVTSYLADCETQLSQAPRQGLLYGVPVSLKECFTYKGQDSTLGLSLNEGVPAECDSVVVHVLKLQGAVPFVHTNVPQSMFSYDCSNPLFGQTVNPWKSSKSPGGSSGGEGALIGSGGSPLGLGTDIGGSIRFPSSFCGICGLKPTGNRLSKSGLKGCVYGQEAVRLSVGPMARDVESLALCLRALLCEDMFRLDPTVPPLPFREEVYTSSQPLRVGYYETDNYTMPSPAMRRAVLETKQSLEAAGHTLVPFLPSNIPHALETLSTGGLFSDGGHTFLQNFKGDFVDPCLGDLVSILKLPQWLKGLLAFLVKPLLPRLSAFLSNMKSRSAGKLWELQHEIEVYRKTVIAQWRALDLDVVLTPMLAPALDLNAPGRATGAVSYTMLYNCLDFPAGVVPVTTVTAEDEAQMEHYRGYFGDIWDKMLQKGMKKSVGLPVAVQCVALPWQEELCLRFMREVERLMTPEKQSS

Answered cases to consult:
| COMPOUND | TEST RESULT |
| --- | --- |
| CC(=O)Nc1ccn(C(=O)N2CCC3(CCN(Cc4cc(C(F)(F)F)cc(C5(C(=O)O)CCCC5)c4)C3)CC2)n1 [Example 25] | 1 to 10 µM |
| CC(=O)Nc1ccn(C(=O)N2CCC3(CCN(Cc4ccc(N5CCCC5)cc4C(F)(F)F)C3)CC2)n1 [Example 23] | 0.1 to 1 µM |
| CC(=O)Nc1ccn(C(=O)N2CC3CN(Cc4ccc(Cl)c(C(C)(C)O)c4)CC3C2)n1 (stereo not drawn) [Example 150] | 1 to 10 µM |
| CC(=O)Nc1ccn(C(=O)N2CC3CN(Cc4cc(F)cc(Cl)c4)CC3C2)n1 (stereo not drawn) [Example 145] | 0.1 to 1 µM |
| CC(=O)Nc1ccn(C(=O)N2CC3CN(Cc4cc(Cl)cc(C(F)(F)F)c4)CC3C2)n1 (stereo not drawn) [Example 146] | 1 to 10 µM |

Now, please, on to the next compound.
Find the measured IC50 of CC(=O)Nc1ccn(C(=O)N2CCC3(CCCN3Cc3cc4cc(Cl)cc(Cl)c4[nH]3)CC2)n1 [Example 13] and report it.
1 to 10 µM

====

target: FAAH (Mus musculus (Mouse), UniProt O08914); experiment: In vitro competitive activity-based protein profiling, mouse proteomes (brain membrane fraction or cell lysates); format: biochemical; details: mouse proteome, read-out: FAAH % inh. 1 μM (mouse)
Sequence (O08914 whole entry): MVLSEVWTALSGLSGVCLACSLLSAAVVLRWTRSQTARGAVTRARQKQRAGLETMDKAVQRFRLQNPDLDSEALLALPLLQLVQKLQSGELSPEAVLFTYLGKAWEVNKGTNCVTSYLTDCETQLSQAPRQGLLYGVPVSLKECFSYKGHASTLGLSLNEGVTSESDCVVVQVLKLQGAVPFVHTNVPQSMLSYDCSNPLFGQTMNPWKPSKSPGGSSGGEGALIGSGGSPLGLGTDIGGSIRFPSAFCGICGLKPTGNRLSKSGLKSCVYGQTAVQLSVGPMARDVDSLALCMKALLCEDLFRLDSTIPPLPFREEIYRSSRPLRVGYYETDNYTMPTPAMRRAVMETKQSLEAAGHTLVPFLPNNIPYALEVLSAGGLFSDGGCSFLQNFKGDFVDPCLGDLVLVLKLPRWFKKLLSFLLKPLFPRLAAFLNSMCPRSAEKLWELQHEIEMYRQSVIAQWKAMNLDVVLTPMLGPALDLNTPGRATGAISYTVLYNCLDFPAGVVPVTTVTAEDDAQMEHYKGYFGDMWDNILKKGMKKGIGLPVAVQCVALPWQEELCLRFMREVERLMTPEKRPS
METRIC: inhibition at 1 µM

Answered cases to consult:
| QUERY SMILES | inhibition at 1 µM |
| --- | --- |
| CS(=O)(=O)Nc1ccn(C(=O)N2CCC(OCc3ccc(N4CCC(F)CC4)c(Cl)c3)CC2)n1 | > 75% |
| CC(=O)Nc1ccn(C(=O)N2CC[C@H](Oc3ccc(C(N)=O)c(C(F)(F)F)c3)[C@H](F)C2)n1 | 0 to 25% |
| CN(c1ccc(C(F)(F)F)cc1N1CCCC1)C1CCN(C(=O)n2ccc(NS(C)(=O)=O)n2)CC1 | 0 to 25% |
| CS(=O)(=O)Nc1ccn(C(=O)N2CCC3(CCN(Cc4ccc(C(F)(F)F)c(N5CCCC5)c4)C3)CC2)n1 | 50 to 75% |
| CS(=O)(=O)Nc1ccn(C(=O)N2CCC3(CCN(Cc4cc(N5CCCC5)cc(C(F)(F)F)c4)C3)CC2)n1 | 0 to 25% |
| CS(=O)(=O)Nc1ccn(C(=O)N2CCC3(CCN(Cc4cc(N5CCOCC5)cc(C(F)(F)F)c4)C3)CC2)n1 | 0 to 25% |

Now, please, on to the next compound.
Find the measured inhibition at 1 µM of C[C@@H]1CCCN1c1cc(CN2CCN(C(=O)n3ccc(NS(C)(=O)=O)n3)CC2)ccc1C(F)(F)F and report it.
0 to 25%

====

target: FAAH (Homo sapiens (Human), UniProt O00519); assay: In vitro competitive activity-based protein profiling, human proteomes (prefrontal cortex or PC3 cell membrane fractions); format: biochemical; conditions: 1 μM, human proteome; read-out: FAAH % inh. 1 μM (human)
Form field: inhibition at 1 µM (one value per entry).

Answered cases to consult:
| COMPOUND | inhibition at 1 µM |
| --- | --- |
| CC(=O)Nc1ccn(C(=O)N2CCN(Cc3ccc(-c4ccccc4)cc3C)CC2)n1 | > 75% |
| CC(=O)Nc1ccn(C(=O)N2CCC(C)(N(C)Cc3cc(C(F)(F)F)cc(C4(C(=O)O)CCCC4)c3)CC2)n1 | 0 to 25% |
| CS(=O)(=O)Nc1ccn(C(=O)N2CCN(Cc3ccc(Cl)c(N4CCO[C@@H]5CCC[C@@H]54)c3)CC2)n1 | 0 to 25% |

Find the measured inhibition at 1 µM of C[C@H]1CCCN1c1cc(CN2CCN(C(=O)n3ccc(NS(C)(=O)=O)n3)CC2)ccc1C(F)(F)F and report it.
0 to 25%

Find the measured inhibition at 1 µM of CC(=O)Nc1ccn(C(=O)N2CC3CN(Cc4cc(N5CCCC5)cc(C(F)(F)F)c4)CC3C2)n1 (stereo not drawn) and report it.
50 to 75%

Find the measured inhibition at 1 µM of CS(=O)(=O)Nc1ccn(C(=O)N2CCC3(CCN(Cc4cc(Cl)cc(N5CCCC5)c4)C3)CC2)n1 and report it.
0 to 25%

Find the measured inhibition at 1 µM of CS(=O)(=O)Nc1ccn(C(=O)N2CCC(Oc3ccc(C(F)(F)F)cc3-c3nccs3)CC2)n1 and report it.
0 to 25%

Find the measured inhibition at 1 µM of CS(=O)(=O)Nc1ccn(C(=O)N2CCC(Oc3ccc(Cl)c(OC4CCCC4)c3)CC2)n1 and report it.
0 to 25%

Find the measured inhibition at 1 µM of CC(=O)Nc1ccn(C(=O)N2CCN(Cc3ccc(C(N)=O)c(C(F)(F)F)c3)CC2)n1 and report it.
0 to 25%

Find the measured inhibition at 1 µM of CS(=O)(=O)Nc1ccn(C(=O)N2CC3CN(Cc4ccc(Oc5ccc(Cl)cc5)cc4)CC3C2)n1 (stereo not drawn) and report it.
50 to 75%

Find the measured inhibition at 1 µM of CS(=O)(=O)Nc1ccn(C(=O)N2CCN(Cc3ccc(Cl)nc3N3CCCC3)CC2)n1 and report it.
0 to 25%

Find the measured inhibition at 1 µM of CS(=O)(=O)Nc1ccn(C(=O)N2CC[C@H](Oc3ccc(C(F)(F)F)c(N4CCC(F)CC4)c3)[C@H](F)C2)n1 and report it.
0 to 25%

====

target: FAAH (Homo sapiens (Human), UniProt O00519); assay: In vitro competitive activity-based protein profiling, human proteomes (prefrontal cortex or PC3 cell membrane fractions); format: biochemical; conditions: 1 μM, human proteome; read-out: FAAH % inh. 1 μM (human)
METRIC: inhibition at 1 µM

Find the measured inhibition at 1 µM of CS(=O)(=O)Nc1ccn(C(=O)N2CCC3(CCN(Cc4ccc(C(F)(F)F)cc4N4CCCC4)C3)CC2)n1 and report it.
0 to 25%

====

target: MAGL (Homo sapiens (Human), UniProt Q99685); experiment: In vitro competitive activity-based protein profiling, human proteomes (prefrontal cortex or PC3 cell membrane fractions); assay type: biochemical; conditions: 1 μM, human proteome; read-out: MAGL % inh. 1 μM (human)
Sequence (Q99685 whole entry): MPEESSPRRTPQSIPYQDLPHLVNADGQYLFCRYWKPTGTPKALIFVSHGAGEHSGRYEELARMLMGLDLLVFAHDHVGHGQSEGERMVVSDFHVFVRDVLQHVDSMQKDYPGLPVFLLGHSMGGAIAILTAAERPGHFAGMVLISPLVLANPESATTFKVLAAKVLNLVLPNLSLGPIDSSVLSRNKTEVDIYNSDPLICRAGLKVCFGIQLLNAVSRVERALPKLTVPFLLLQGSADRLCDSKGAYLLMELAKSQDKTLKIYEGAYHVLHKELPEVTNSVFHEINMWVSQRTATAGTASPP
Form field: inhibition at 1 µM (one value per entry).

| COMPOUND | inhibition at 1 µM |
| --- | --- |
| CS(=O)(=O)Nc1ccn(C(=O)N2CCN(Cc3ccc(C(F)(F)F)nc3N3CCCC3)CC2)n1 [Example 71] | > 75% |

Enter measured inhibition at 1 µM, system MAGL (Homo sapiens (Human), UniProt Q99685), for the compound shown: CS(=O)(=O)Nc1ccn(C(=O)N2CCN(Cc3cccnc3N3CCCC3)CC2)n1 [Example 81]
> 75%

Enter measured inhibition at 1 µM, system MAGL (Homo sapiens (Human), UniProt Q99685), for the compound shown: C[C@@H]1CN(Cc2ccc(C(F)(F)F)c(N3CC4COCC4C3)c2)CCN1C(=O)n1ccc(NS(C)(=O)=O)n1 (stereo partly shown) [Example 180]
> 75%

Enter measured inhibition at 1 µM, system MAGL (Homo sapiens (Human), UniProt Q99685), for the compound shown: CN(Cc1ccc(N2CCCC2)cc1C(F)(F)F)[C@H]1C[C@@H]2CN(C(=O)n3ccc(NS(C)(=O)=O)n3)C[C@@H]2C1 [Example 50]
50 to 75%

====

target: MAGL (Homo sapiens (Human)); test: In vitro competitive activity-based protein profiling, human proteomes (prefrontal cortex or PC3 cell membrane fractions); assay type: biochemical; conditions: 1 μM, human proteome; read-out: MAGL % inh. 1 μM (human)
METRIC: inhibition at 1 µM

Answered cases to consult:
| MOLECULE | inhibition at 1 µM |
| --- | --- |
| CC(=O)Nc1ccn(C(=O)N2CCN(Cc3ccc(C(F)(F)F)cc3NCCCC(=O)O)CC2)n1 | > 75% |
| C[C@@H]1CCCN1c1cc(CN2CCN(C(=O)n3ccc(NS(C)(=O)=O)n3)CC2)ccc1C(F)(F)F | > 75% |
| CC(=O)Nc1ccn(C(=O)N2CCN(Cc3ccc(Cl)cc3NCC(=O)O)CC2)n1 | > 75% |

Find the measured inhibition at 1 µM of CN(Cc1ccc(C(F)(F)F)cc1N1CCC(C(=O)O)C1)C1(C)CCN(C(=O)n2ccc(NS(C)(=O)=O)n2)CC1 (stereo not shown) and report it.
25 to 50%

====

target: MAGL (Mus musculus (Mouse), UniProt O35678); test: In vitro competitive activity-based protein profiling, mouse proteomes (brain membrane fraction or cell lysates); assay type: biochemical; settings: mouse proteome, read-out: MAGL % inh. 1 μM (mouse)
Sequence (O35678 whole entry): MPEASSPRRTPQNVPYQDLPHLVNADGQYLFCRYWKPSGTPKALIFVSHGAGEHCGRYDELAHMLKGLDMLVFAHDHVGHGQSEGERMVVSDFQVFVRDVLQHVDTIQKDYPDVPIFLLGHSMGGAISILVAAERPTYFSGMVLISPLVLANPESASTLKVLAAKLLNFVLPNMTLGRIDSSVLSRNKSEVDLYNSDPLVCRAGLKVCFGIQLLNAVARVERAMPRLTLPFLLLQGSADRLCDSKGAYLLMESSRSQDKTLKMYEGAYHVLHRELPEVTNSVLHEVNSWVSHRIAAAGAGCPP
METRIC: inhibition at 1 µM

Find the measured inhibition at 1 µM of Cc1cc(CN2CCCC23CCN(C(=O)n2ccc(NC(=O)C4CC4)n2)CC3)ccc1Cl [Example 83] and report it.
> 75%

Find the measured inhibition at 1 µM of CC(=O)Nc1ccn(C(=O)N2CCC3(CCCN3Cc3cc4cc(C(N)=O)ccc4[nH]3)CC2)n1 [Example 14] and report it.
50 to 75%

Find the measured inhibition at 1 µM of CS(=O)(=O)Nc1ccn(C(=O)N2CCC3(CCN(Cc4ccc(C(F)(F)F)cc4N4CCCC4)C3)CC2)n1 [Example 58] and report it.
> 75%
